- Tested on: 565726-208-R1-J5-PDC complex spheroids, growth inhibition;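 further: spheroids exposed to compounds for seven days before readout; 100% = DMSO vehicle control viability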
- protocol-description: Anticancer human tumor 565726-208-R1-J5-PDC patient-derived pancreatic adenocarcinoma cell line growth inhibition [RAS]
- setup-conditions: second compound 0.03 µM; first compound 10 µM; hits give low values
Entries and their viability, T/C

- compound: "CC(C)NCC(C(=O)N1CCN(c2ncnc3c2C(C)CC3O)CC1)c1ccc(Cl)cc1 (centres undefined) + CCn1c(-c2cc(N3CCN(C)CC3)cnc2C(C)OC)c2c3cc(ccc31)-c1csc(n1)CC(NC(=O)C1CC1C)C(=O)N1CCCC(N1)C(=O)OCC(C)(C)C2"
  target-desc: "565726-208-R1-J5-PDC complex spheroids, growth inhibition"
  viability, T/C: "14.7%"
- compound: "CC(Nc1ccc2c(c1)OCCn1cc(N3C(=O)OCC3C(F)F)nc1-2)C(N)=O (centres undefined) + CCn1c(-c2cc(N3CCN(C)CC3)cnc2C(C)OC)c2c3cc(ccc31)-c1csc(n1)CC(NC(=O)C1CC1C)C(=O)N1CCCC(N1)C(=O)OCC(C)(C)C2"
  target-desc: "565726-208-R1-J5-PDC complex spheroids, growth inhibition"
  viability, T/C: "13.3%"
- compound: "Cc1nc(N2CCC3(CC2)COC(C)C3N)c(CO)nc1Sc1ccnc(N)c1Cl (centres undefined) + CCn1c(-c2cccnc2C(C)OC)c2c3cc(ccc31)N1CCOC(CC(NC(=O)C(C(C)C)N(C)C(=O)C3(F)CCN(C(=O)C#CC(C)(C)N(C)C)CC3)C(=O)N3CCCC(N3)C(=O)OCC(C)(C)C2)C1"
  target-desc: "565726-208-R1-J5-PDC complex spheroids, growth inhibition"
  viability, T/C: "69.6%"
- compound: "C[C@@H](NC(=O)c1ncnc(N)c1Cl)c1ncc(C(=O)Nc2cc(C(F)(F)F)c(Cl)cn2)s1 + CCn1c(-c2cc(N3CCN(C)CC3)cnc2C(C)OC)c2c3cc(ccc31)-c1csc(n1)CC(NC(=O)C1CC1C)C(=O)N1CCCC(N1)C(=O)OCC(C)(C)C2"
  target-desc: "565726-208-R1-J5-PDC complex spheroids, growth inhibition"
  viability, T/C: "31.4%"
